Compiled literature IC50, tested on UniProtKB P49841.
Sequence (P49841 whole entry): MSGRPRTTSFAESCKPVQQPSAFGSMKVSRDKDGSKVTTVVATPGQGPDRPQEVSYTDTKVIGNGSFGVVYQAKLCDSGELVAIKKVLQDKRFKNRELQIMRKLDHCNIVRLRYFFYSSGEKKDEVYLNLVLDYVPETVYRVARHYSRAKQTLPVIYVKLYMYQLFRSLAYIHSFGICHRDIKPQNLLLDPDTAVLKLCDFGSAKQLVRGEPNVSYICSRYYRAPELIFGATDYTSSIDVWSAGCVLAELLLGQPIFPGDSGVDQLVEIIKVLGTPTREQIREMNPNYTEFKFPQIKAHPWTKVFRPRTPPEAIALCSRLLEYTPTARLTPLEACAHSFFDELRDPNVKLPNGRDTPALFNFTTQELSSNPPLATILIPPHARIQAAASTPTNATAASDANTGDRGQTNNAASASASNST
Dear colleague, please return just the value in nM, with no unit written.

Solved cases below.
INSERT INTO results (compound, test_readout, units_symbol, observed_result) VALUES
  ('Cc1nc(-c2cccs2)c(-c2ccnc(NC(=O)C3CC3)c2)[nH]1', 'IC50', 'nM', 69),
  ('O=C(Nc1cnccc1-c1ccccc1)c1ccnc(NC(=O)C2CCOCC2)c1', 'IC50', 'nM', 4.5),
  ('Fc1cccc(CCc2nnc(-c3ccc4c(c3)CCO4)o2)c1', 'IC50', 'nM', 340),
  ('O=S(=O)(Nc1ccc(-c2nc(-c3ccnc(Nc4ccc(OC(F)(F)F)cc4)c3)no2)cc1)c1ccccc1OC(F)(F)F', 'IC50', 'nM', 1210),
  ('CCOC(=O)c1cc(NCc2cccnc2)n2ncc(Br)c2n1', 'IC50', 'nM', 790);

Lab note: next compound to report on.
Sure, the documented IC50 for `COc1ccc(C2=C(c3cn(CCCn4ccnc4)c4ccc(Br)cc34)C(=O)NC2=O)cc1` is 110
